biological target: recombinant human MMP-8 (Homo sapiens (Human)); test: MMP selectivity assay, MMP-8; settings: Table 2 selectivity profile; read-out: IC50, Target: MMP 8
Sequence (P22894 101-467): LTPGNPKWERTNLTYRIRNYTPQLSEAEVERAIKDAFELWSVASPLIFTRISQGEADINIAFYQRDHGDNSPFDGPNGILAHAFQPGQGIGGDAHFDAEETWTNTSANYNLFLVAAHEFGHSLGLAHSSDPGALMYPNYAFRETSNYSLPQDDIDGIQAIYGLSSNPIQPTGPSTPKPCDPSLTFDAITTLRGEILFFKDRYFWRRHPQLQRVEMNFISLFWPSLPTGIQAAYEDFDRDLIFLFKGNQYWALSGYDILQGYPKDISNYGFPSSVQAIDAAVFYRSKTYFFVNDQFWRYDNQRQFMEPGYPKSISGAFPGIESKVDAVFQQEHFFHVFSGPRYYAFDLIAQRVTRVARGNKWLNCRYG
readout-label: IC50

INSERT INTO assay_data (compound, tested_on, data_value) VALUES
  ('Cc1cc(/C=C/c2ccc(Sc3cnn(C)c3C3NC(=O)NC3=O)cc2)ccn1 (centres unmarked)', 'recombinant human MMP-8 (Homo sapiens (Human))', '10 to 100 nM'),
  ('Cc1cc(C#Cc2ccc(Sc3ccoc3C3NC(=O)NC3=O)cc2)ccn1 (centres unmarked)', 'recombinant human MMP-8 (Homo sapiens (Human))', '> 100 nM');

Tell me the measured IC50 of Cc1cc(C#Cc2ccc(Oc3ccncc3C3NC(=O)NC3=O)cc2)ccn1 (centres unmarked) , please.
> 100 nM

Tell me the measured IC50 of Cc1cc(/C=C/c2ccc(Sc3ccncc3C3NC(=O)NC3=O)cc2)ccn1 (centres unmarked) , please.
> 100 nM

Tell me the measured IC50 of Cc1cc(C#Cc2ccc(Sc3ccncc3C3NC(=O)NC3=O)cc2)ccn1 (centres unmarked) , please.
> 100 nM

Tell me the measured IC50 of Cc1cc(/C=C/c2ccc(Oc3ccncc3C3NC(=O)NC3=O)cc2)ccn1 (centres unmarked) , please.
10 to 100 nM

Tell me the measured IC50 of CCC1(c2occc2Sc2ccc(/C=C/c3ccnc(C)c3)cc2)NC(=O)NC1=O (centres unmarked) , please.
1 to 10 nM

Tell me the measured IC50 of Cc1cc(/C=C/c2ccc(Sc3ccoc3C3NC(=O)NC3=O)cc2)ccn1 (centres unmarked) , please.
10 to 100 nM

Tell me the measured IC50 of Cc1cc(/C=C/c2ccc(Sc3ccsc3C3NC(=O)NC3=O)cc2)ccn1 (centres unmarked) , please.
1 to 10 nM

Tell me the measured IC50 of Cc1cc(C#Cc2ccc(Sc3ccsc3C3NC(=O)NC3=O)cc2)ccn1 (centres unmarked) , please.
10 to 100 nM

Tell me the measured IC50 of Cc1cc(C#Cc2ccc(Sc3cnn(C)c3C3NC(=O)NC3=O)cc2)ccn1 (centres unmarked) , please.
10 to 100 nM

###

biological target: recombinant human MMP-12 catalytic domain (Homo sapiens (Human)); experiment: MMP-12 inhibitory assay, fluorogenic substrate cleavage; type: biochemical; details: Table 2 selectivity profile; read-out: IC50, Target: MMP 12
Sequence (P39900 106-268): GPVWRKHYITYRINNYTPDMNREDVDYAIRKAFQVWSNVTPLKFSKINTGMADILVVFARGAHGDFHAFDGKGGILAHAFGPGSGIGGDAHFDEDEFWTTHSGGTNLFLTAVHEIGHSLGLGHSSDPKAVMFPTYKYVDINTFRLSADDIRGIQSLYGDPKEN
pIC50: −log10 of the molar value.
# pIC50 annotations

Consider the worked cases shown below.
INSERT INTO results (compound, readout_label, data_value) VALUES
  ('Cc1cc(/C=C/c2ccc(Sc3ccncc3C3NC(=O)NC3=O)cc2)ccn1 (centres unmarked)', 'pIC50', '> 9.00'),
  ('Cc1cc(C#Cc2ccc(Sc3cnn(C)c3C3NC(=O)NC3=O)cc2)ccn1 (centres unmarked)', 'pIC50', '> 9.00'),
  ('Cc1cc(/C=C/c2ccc(Sc3cnn(C)c3C3NC(=O)NC3=O)cc2)ccn1 (centres unmarked)', 'pIC50', '> 9.00'),
  ('Cc1cc(C#Cc2ccc(Sc3ccncc3C3NC(=O)NC3=O)cc2)ccn1 (centres unmarked)', 'pIC50', '8.00 to 9.00'),
  ('Cc1cc(/C=C/c2ccc(Oc3ccncc3C3NC(=O)NC3=O)cc2)ccn1 (centres unmarked)', 'pIC50', '> 9.00'),
  ('Cc1cc(C#Cc2ccc(Sc3ccsc3C3NC(=O)NC3=O)cc2)ccn1 (centres unmarked)', 'pIC50', '> 9.00');

Tell me the measured pIC50 of Cc1cc(C#Cc2ccc(Sc3ccoc3C3NC(=O)NC3=O)cc2)ccn1 (centres unmarked) , please.
7.00 to 8.00

Tell me the measured pIC50 of CCC1(c2occc2Sc2ccc(/C=C/c3ccnc(C)c3)cc2)NC(=O)NC1=O (centres unmarked) , please.
> 9.00

Tell me the measured pIC50 of Cc1cc(/C=C/c2ccc(Sc3ccoc3C3NC(=O)NC3=O)cc2)ccn1 (centres unmarked) , please.
> 9.00

Tell me the measured pIC50 of Cc1cc(/C=C/c2ccc(Sc3ccsc3C3NC(=O)NC3=O)cc2)ccn1 (centres unmarked) , please.
> 9.00

Tell me the measured pIC50 of Cc1cc(C#Cc2ccc(Oc3ccncc3C3NC(=O)NC3=O)cc2)ccn1 (centres unmarked) , please.
8.00 to 9.00
